B1: SNAP25 15-mer peptide (wild type) containing the zDABM [not stated] / His6-tagged AR domain (residues 51–288) of zDHHC17 [human] (parent)
chain 1: THIDDYSTWDIVKATQYGIYERCRELVEAGYDVRQPDKENVTLLHWAAINNRIDLVKYYISKGAIVDQLGGDLNSTPLHWATRQGHLSMVVQLMKYGADPSLIDGEGCSCIHLAAQFGHTSIVAYLIAKGQDVDMMDQNGMTPLMWAAYRTHSVDPTRLLLTFNVSVNLGDKYHKNTALHWAVLAGNTTVISLLLEAGANVDAQNIKGESALDLAKQRKNVWMINHLQEARQAKGYDN
chain 2: QDGVVASQPARVVDE

variants of: B1; assay: far-Western blotting on peptide array; conditions: with His6-tagged AR domain (residues 51–288) of zDHHC17 [human]; ARzD17-His 500 nm in PBS-T, overnight, 4 °C;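 note: PSSM score: binding signal versus wild type scaled to sum 1 per position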

[
  {
    "residue_sequence": "chain 2 QDGVVASQPDRVVDE [chain 2 A10D]",
    "screen value": "< 0.005"
  },
  {
    "residue_sequence": "chain 2 QDGVVASQPALVVDE [chain 2 R11L]",
    "screen value": "< 0.005"
  },
  {
    "residue_sequence": "chain 2 QDGAVASQPARVVDE [chain 2 V4A]",
    "screen value": "< 0.005"
  }
]
